Test summary: in vivo
Condition parameters: male, beagle, dog, in vivo, po, 0.5 mg/m2
Excerpt: […]
Measured parameter: Cmax (ng/mL)
Answer in ng/mL, number only, no unit symbol.

Ask: I would be grateful if you could share the reported Cmax for CC(=O)Nc1cccc(-n2c(=O)n(C3CC3)c(=O)c3c(Nc4ccc(I)cc4F)n(C)c(=O)c(C)c32)c1 [Compound] .
Result: 9.37

* * *

Test summary: FTIH study: single dose (Day 1) pharmacokinetics of Compound tablets
Assay type: in vivo
Condition parameters: plasma; human, single oral dose Day 1, fasting, 3.0 mg, mean (CV %), N 12; read-out: C24
Measured parameter: concentration at 24 h

Ask: What does the data say about its concentration at 24 h? Entry: CC(=O)Nc1cccc(-n2c(=O)n(C3CC3)c(=O)c3c(Nc4ccc(I)cc4F)n(C)c(=O)c(C)c32)c1 [Compound]
Result: 3.35 ng/mL

* * *

Test summary: in vivo
Condition parameters: male, Sprague Dawley, rat, in vivo, po, 0.125 mg/m2
Description: […]
Measured parameter: Cmax (ng/mL)
The reply should be a number in ng/mL, with the unit left off.

Ask: Given the molecule CC(=O)Nc1cccc(-n2c(=O)n(C3CC3)c(=O)c3c(Nc4ccc(I)cc4F)n(C)c(=O)c(C)c32)c1 [Compound] , what is its reported Cmax?
Result: 1.78

* * *

Test summary: clinical
Condition parameters: human, plasma, po, 0.25 mg
Measured parameter: Cmax (ng/mL)
Expressed in ng/mL, but write only the number.

Ask: Reported Cmax, compound CC(=O)Nc1cccc(-n2c(=O)n(C3CC3)c(=O)c3c(Nc4ccc(I)cc4F)n(C)c(=O)c(C)c32)c1 [Compound] : ____
Result: 2.08

* * *

Test summary: in vivo
Condition parameters: male, Sprague Dawley, rat, in vivo, po, 1 mg/m2
Measured parameter: Cmax at 3 weeks (ng/mL)
Supply the numeric figure in ng/mL, leaving out any unit text.

Ask: Consider the molecule `CC(=O)Nc1cccc(-n2c(=O)n(C3CC3)c(=O)c3c(Nc4ccc(I)cc4F)n(C)c(=O)c(C)c32)c1` and give its measured Cmax at 3 weeks.
Result: 13.3

* * *

Test summary: clinical
Condition parameters: human, plasma, po, 2 mg
Measured parameter: Cmax (ng/mL)
Just the number please, in ng/mL, no unit attached.

Ask: Which Cmax reading was recorded for the molecule `CC(=O)Nc1cccc(-n2c(=O)n(C3CC3)c(=O)c3c(Nc4ccc(I)cc4F)n(C)c(=O)c(C)c32)c1` ?
Result: 23

* * *

Test summary: FTIH study: single dose (Day 1) pharmacokinetics of Compound tablets
Format: in vivo
Condition parameters: plasma, oral; human, Day 1, fasting, 10.0 mg loading dose, median, N 4; read-out: Tmax
Measured parameter: Tmax
Dear colleague, please send the value followed by its unit.

Ask: Recorded Tmax of `CC(=O)Nc1cccc(-n2c(=O)n(C3CC3)c(=O)c3c(Nc4ccc(I)cc4F)n(C)c(=O)c(C)c32)c1` , please.
Result: 1.5 h

* * *

Test summary: FTIH study: single dose (Day 1) pharmacokinetics of Compound tablets
Format: in vivo
Condition parameters: plasma, oral; human, Day 1, fasting, 8.0 mg loading dose, mean (CV %), N 7; read-out: AUC (0-24)
Measured parameter: AUC(0-t) (ng·h/mL)
Reply with just the number (in ng·h/mL).

Ask: Report AUC(0-t) for `CC(=O)Nc1cccc(-n2c(=O)n(C3CC3)c(=O)c3c(Nc4ccc(I)cc4F)n(C)c(=O)c(C)c32)c1` please.
Result: 161

Data origin, for the record: patent US20130266649A1
